# Ki per record follows
target: Somatostatin receptor type 5 (Homo sapiens, UniProt P35346); assay: In vitro inhibition of radioligand binding to human Somatostatin receptor type 5 expressed in CHO-K1 cells.; assay type: cell-based; conditions: cho-k1
Sequence (P35346 whole entry): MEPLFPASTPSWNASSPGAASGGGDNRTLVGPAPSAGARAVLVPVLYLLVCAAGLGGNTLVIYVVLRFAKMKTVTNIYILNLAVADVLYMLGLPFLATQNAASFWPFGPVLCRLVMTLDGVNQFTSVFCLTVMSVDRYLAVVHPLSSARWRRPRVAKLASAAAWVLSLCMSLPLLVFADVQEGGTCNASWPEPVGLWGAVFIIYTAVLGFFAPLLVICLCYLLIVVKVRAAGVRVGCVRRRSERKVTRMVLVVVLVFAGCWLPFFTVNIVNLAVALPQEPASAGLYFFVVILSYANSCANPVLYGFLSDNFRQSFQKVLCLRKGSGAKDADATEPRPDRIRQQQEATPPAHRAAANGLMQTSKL
Dear colleague, please return just the value in nM, with no unit written.

Example results:
C[C@@H](O)[C@@H]1NC(=O)[C@H](CCCCN)NC(=O)[C@@H](Cc2c[nH]c3ccccc23)NC(=O)[C@H](Cc2ccccc2)NC(=O)CN(Cc2ccccc2)C(=O)[C@H](Cc2ccccc2)NC1=O
101
C[C@@H](O)[C@@H]1NC(=O)[C@H](CCCCN)NC(=O)[C@@H](Cc2c[nH]c3ccccc23)NC(=O)[C@H](Cc2ccccc2)NC(=O)CN([C@@H](C)c2ccccc2)C(=O)[C@H](Cc2ccccc2)NC1=O
87

As a next step, examine the compound that follows.
Input line: Can you share its Ki? I mean this compound: "C[C@H](c1ccccc1)N1CC(=O)N[C@@H](Cc2ccccc2)C(=O)N[C@H](Cc2c[nH]c3ccccc23)C(=O)N[C@@H](CCCCN)C(=O)N[C@@H]([C@@H](C)O)C(=O)N[C@@H](Cc2ccccc2)C1=O"
Output line: 33.5
